- Study Target: EGFR^L858R/T790M/C797S (Homo sapiens, UniProt P00533, C797S/L858R/T790M)
- Sequence (P00533 25-1210 T790M/C797S/L858R): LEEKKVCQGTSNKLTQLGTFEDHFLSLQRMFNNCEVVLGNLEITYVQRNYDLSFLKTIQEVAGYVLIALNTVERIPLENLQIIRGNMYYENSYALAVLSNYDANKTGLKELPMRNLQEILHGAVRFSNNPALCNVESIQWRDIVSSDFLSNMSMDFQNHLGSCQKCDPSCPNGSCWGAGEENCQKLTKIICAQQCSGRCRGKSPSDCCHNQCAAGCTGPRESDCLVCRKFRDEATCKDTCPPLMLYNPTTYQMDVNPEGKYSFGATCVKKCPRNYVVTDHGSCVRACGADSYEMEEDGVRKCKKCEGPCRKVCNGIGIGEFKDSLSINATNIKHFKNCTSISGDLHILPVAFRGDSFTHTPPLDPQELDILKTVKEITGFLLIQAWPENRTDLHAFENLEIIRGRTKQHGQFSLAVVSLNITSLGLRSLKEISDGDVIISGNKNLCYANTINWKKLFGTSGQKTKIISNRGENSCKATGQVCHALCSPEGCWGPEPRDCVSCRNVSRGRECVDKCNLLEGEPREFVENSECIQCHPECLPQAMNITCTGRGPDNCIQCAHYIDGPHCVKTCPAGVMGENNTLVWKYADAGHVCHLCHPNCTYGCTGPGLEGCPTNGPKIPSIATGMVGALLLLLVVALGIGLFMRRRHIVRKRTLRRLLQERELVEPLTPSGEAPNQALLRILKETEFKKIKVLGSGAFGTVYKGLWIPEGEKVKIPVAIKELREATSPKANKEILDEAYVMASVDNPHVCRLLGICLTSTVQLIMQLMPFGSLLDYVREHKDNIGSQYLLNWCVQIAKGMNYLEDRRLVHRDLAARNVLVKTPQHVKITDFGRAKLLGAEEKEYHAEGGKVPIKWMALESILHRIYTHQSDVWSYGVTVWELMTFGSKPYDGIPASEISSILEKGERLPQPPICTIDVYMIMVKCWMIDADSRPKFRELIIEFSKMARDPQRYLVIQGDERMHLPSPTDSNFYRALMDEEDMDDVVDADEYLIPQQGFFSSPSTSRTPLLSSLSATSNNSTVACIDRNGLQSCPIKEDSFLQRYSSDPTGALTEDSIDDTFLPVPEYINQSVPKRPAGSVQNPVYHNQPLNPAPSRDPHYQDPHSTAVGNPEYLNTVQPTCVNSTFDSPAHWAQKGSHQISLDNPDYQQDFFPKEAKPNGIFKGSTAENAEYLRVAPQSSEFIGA
- Experiment Description: In vitro enzymatic activity assay
Metric Name: pIC50
Reminder that pIC50 is minus the log10 of a molar concentration.

Input line: Please report the measured pIC50 for Oc1ccccc1-c1nc(NCCN2CCNCC2)c2ccccc2n1 [4a]
Output line: 5.91
